# Test system: CCRIS mutagenicity, Ames/micronucleus/aberration tests
# ASSAY COMMENT: CCRIS mutagenicity studies
# RECORDED CONDITIONS: Test System: AMES SALMONELLA TYPHIMURIUM; Strain/Indicator: TA98; Metabolic Activation: RAT, LIVER, S-9, AROCLOR 1254; Method: STANDARD PLATE
Calls of active or inactive are those of the source. No rule for the calls is given here.
ASSAY METRIC: mutagenic call

Some entries whose results are on file:
[[record]]
compound = "CC(S)C(=O)NCC(=O)O (stereo not given)"
value_measured = "inactive; negative"

[[record]]
compound = "O.[Al+3].[Al+3].[Na+].[Na+].[O-2].[O-2].[O-2].[O-2].[O-2].[O-2].[Si+4]"
value_measured = "inactive; negative"

[[record]]
compound = "CC1(C)COC1=O"
value_measured = "inactive; negative"

[[record]]
compound = "CCS(=O)(=O)CCn1c([N+](=O)[O-])cnc1C"
value_measured = "inactive; negative"

[[record]]
compound = "C=CC(=O)N(CC1CO1)CC1CO1 (stereo not given)"
value_measured = "active; positive"


Form field: reported mutagenic call of CCN(CC)C(=O)Nc1ccc(OCC(O)CNC(C)(C)C)c(C(C)=O)c1 (stereo not given)
inactive; negative

Form field: reported mutagenic call of C[C@]12CC[C@@H](OC(=O)/C=C/c3cccc(N(CCCl)CCCl)c3)C[C@@H]1CC[C@@H]1[C@@H]2CC[C@]2(C)NC(=O)CC[C@@H]12
inactive; negative

Form field: reported mutagenic call of CC(=O)N(O)c1ccccc1C
active; positive

Form field: reported mutagenic call of Cn1c(N)nc2c3ccc(=O)[nH]c3ccc21
active; positive

Form field: reported mutagenic call of COc1cc2c(cc1O)CCN[C@]21CS[C@@H]2c3c(OC(C)=O)c(C)c4c(c3[C@H](COC1=O)N1[C@@H]2[C@H]2c3c(cc(C)c(OC)c3O)C[C@@H]([C@@H]1O)N2C)OCO4
active; positive
